// % max blocking lookup, one value per entry
target.or.system: T1, human GFRα3 expressed with a C-terminal hFc tag (human)
T1 construct: also called hGFRα3-hFc
T1 sequence (chain, as listed by the source limits assumed): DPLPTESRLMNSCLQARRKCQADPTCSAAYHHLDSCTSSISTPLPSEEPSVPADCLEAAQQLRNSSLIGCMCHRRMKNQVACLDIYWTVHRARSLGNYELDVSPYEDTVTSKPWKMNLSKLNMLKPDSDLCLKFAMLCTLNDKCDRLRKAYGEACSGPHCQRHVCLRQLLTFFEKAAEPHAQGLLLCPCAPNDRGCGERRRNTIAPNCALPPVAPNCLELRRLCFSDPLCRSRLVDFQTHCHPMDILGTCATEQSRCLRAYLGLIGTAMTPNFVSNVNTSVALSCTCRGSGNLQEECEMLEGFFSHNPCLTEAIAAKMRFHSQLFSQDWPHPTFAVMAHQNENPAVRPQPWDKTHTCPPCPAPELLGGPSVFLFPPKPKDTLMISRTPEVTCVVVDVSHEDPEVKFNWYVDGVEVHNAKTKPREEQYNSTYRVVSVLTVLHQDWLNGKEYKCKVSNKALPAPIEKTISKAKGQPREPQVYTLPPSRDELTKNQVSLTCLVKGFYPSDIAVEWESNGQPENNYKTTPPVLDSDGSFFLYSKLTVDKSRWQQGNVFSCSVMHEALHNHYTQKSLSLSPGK
protocol.text: blocking ELISA 1, hGFRα3-hFc to coated hARTEMIN-mmH
Please reply with the bare figure in % and do not write the unit itself.

The cases that follow already have their % max blocking on record.
binder	unit.string	% max blocking
H4H2344S (antibody, human IgG4, V domains shown, human IgG4 Fc (H4H)) VH: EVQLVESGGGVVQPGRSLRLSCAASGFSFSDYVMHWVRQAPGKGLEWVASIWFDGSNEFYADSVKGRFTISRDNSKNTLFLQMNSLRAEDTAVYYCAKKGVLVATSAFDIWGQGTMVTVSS VL: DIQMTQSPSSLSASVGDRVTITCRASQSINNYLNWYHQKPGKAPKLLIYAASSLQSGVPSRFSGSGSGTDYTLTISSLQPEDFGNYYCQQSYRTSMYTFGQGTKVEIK	%	94
H4H2292S (antibody, human IgG4, V domains shown, human IgG4 Fc (H4H)) VH: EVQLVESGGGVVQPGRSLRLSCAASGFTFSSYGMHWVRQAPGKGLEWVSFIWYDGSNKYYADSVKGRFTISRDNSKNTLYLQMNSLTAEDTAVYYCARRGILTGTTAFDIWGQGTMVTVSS VL: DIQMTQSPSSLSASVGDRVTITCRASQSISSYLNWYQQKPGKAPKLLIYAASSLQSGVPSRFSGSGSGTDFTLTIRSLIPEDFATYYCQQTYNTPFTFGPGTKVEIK	%	89

For H4H2350P (antibody, human IgG4, V domains shown, human IgG4 Fc (H4H)) VH: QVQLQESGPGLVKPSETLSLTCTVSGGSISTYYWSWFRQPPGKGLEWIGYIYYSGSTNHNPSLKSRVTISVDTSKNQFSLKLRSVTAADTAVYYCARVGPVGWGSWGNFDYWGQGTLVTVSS VL: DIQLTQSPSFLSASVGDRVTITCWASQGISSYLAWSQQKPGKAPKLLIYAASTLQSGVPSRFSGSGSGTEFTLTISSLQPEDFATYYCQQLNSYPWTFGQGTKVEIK , write its % max blocking.
93

Values were extracted from patent US20140056903A1.
